Assay: modulators of MEP2-GFP levels in yeast, confirmation, S. cerevisiae, flow cytometry GFP, cherry picks (AID 2272);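 also: ratio of well signal to plate DMSO mean so 100% equals DMSO level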
Conditions: S. cerevisiae MEP2-GFP strain, 3 h, at 10 µM, active compounds read high
Each entry below carries its recorded GFP response vs DMSO.
Form entry: value (%) — number only.

The following compounds have reported results that may help.
COC(=O)c1ccc(Sc2ccccn2)c([N+](=O)[O-])c1 ... 109
COc1ccc(N2C(=O)C(Cl)=C(Oc3cccc(OC)c3)C2=O)cc1 ... 105
O=c1c2ccccc2nc(-c2ccccc2)n1CCN1CCOCC1 ... 101
COc1ccc(C(=O)Nc2c(N)nc[nH]c2=O)cc1 ... 105
CN1CCN(CCCCOc2ccccc2C=O)CC1 ... 104

Given COc1ccccc1NC(=O)c1ccc([N+](=O)[O-])o1 , respond with its GFP response vs DMSO. 102

Given COC(=O)c1ccccc1OCC(=O)NC1CCCCC1 , respond with its GFP response vs DMSO. 89.9

Given CCN(CC)c1ccc(/C=C/c2cccc[n+]2C)c(OC)c1 , respond with its GFP response vs DMSO. 137

Given CCc1c2ccccc2nn1-c1ccccc1C(=O)C(C)=O , respond with its GFP response vs DMSO. 103

Given COc1cccc(NC(=O)c2ccc3c(c2)CCCC3)c1 , respond with its GFP response vs DMSO. 97.8

Given Cc1ccc(-c2ccc(CCC(=O)O)o2)cc1 , respond with its GFP response vs DMSO. 95.7

Given CCc1ccc2c(c1)/C(=C/C(=O)c1cccs1)C(=O)N2 , respond with its GFP response vs DMSO. 100
